- TESTED_SYSTEM: PI 3-kinase beta (Homo sapiens)
- Sequence (P42338 whole entry): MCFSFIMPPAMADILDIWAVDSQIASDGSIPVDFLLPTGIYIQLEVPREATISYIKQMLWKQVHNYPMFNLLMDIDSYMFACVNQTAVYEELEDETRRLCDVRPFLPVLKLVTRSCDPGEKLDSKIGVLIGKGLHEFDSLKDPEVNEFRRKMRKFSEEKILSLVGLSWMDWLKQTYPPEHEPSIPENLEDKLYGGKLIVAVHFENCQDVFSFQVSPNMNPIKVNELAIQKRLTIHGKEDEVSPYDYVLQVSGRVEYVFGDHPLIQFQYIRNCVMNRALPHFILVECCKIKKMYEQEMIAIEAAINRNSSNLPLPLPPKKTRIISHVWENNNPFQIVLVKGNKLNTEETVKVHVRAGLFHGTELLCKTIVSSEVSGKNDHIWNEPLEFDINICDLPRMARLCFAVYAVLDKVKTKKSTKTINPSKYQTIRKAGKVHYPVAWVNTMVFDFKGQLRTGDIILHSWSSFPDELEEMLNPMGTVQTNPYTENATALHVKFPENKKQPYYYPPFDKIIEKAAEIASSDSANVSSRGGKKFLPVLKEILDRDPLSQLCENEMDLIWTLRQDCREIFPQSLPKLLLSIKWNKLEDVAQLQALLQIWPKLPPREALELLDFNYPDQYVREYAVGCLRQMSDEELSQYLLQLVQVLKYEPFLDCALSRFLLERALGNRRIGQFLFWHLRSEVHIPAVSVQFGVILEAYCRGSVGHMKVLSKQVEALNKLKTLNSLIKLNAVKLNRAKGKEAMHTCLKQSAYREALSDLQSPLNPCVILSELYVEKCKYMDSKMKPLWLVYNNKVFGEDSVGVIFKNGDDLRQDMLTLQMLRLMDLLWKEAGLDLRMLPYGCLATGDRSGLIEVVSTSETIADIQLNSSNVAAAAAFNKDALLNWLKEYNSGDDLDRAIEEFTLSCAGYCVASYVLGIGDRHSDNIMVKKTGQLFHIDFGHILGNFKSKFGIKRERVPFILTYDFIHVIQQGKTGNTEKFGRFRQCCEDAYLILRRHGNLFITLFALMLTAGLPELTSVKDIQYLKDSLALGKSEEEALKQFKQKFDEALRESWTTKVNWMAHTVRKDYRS
- Sequence (Q63787 whole entry partner): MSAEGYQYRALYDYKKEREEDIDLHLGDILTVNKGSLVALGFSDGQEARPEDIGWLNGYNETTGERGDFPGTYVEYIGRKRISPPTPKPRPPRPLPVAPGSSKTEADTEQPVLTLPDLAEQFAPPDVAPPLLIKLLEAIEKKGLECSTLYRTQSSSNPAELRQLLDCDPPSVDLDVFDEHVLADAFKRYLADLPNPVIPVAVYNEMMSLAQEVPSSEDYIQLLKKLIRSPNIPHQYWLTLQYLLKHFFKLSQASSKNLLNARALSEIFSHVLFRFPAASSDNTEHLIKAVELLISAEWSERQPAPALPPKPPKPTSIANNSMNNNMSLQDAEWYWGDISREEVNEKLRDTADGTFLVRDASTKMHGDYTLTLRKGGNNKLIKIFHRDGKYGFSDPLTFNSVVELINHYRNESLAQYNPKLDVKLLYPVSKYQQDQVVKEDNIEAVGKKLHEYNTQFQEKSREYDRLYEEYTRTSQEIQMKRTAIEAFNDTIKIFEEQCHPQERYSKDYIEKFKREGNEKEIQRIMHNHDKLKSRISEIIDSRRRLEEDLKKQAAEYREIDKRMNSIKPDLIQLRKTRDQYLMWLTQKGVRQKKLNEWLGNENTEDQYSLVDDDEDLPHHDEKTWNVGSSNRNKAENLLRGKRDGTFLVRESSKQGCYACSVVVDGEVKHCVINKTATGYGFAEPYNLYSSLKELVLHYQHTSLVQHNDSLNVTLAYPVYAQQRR
- EXPERIMENTAL_DETAILS: Cellular assay I1, p-Akt (S473) in Rat-1 cells, Surefire format
- Format: cell-based
- MEASUREMENT_PARAMETERS: non-asterisked data: version I1 (Surefire format), Rat-1 cells; read-out: Assay I PI3Kβ IC50
READOUT: IC50

> print(dat)
                                   molecule  reported.result
1  Cc1cc(-c2nc(-c3cc(S(=O)(=O)NCCC(C)(C)O)ccc3C)cnc2N)ccn1          > 10 µM
2  CCc1noc(-c2nc(-c3cc(S(=O)(=O)NCCC(C)(C)O)ccc3C)cnc2N)n1          > 10 µM

Form field: IC50 recorded for Cc1ccc(S(=O)(=O)NOC(C)C)cc1-c1cnc(N)c(-n2cncn2)n1 with PI 3-kinase beta (Homo sapiens) (enter value) > 3 µM

Lab note: need IC50 for Cc1ccc(S(=O)(=O)N[C@H]2C[C@@H](O)C2)cc1-c1cnc(N)c(-n2cncn2)n1 [Example 71b] on PI 3-kinase beta (Homo sapiens), anyone have it? > 10 µM

What measured IC50 is associated with Cc1ccc(S(=O)(=O)NC2CC3(CC(O)C3)C2)cc1-c1cnc(N)c(-c2cn(C)nc2C)n1 (single isomer, unassigned) [Example 9b] on PI 3-kinase beta (Homo sapiens)? > 10 µM

# get_value(readout= IC50, system= PI 3-kinase beta (Homo sapiens)) for Cc1ncn(-c2nc(-c3cc(S(=O)(=O)NCCC(C)(C)O)ccc3C)cnc2N)n1 > 10 µM

What measured IC50 is associated with Cc1ccc(S(=O)(=O)NCCC(C)(C)O)cc1-c1cnc(N)c(-c2cn[nH]c2)n1 on PI 3-kinase beta (Homo sapiens)? > 10 µM

Query for PI 3-kinase beta (Homo sapiens): what IC50 does the record show for CC(C)(O)CNS(=O)(=O)c1cccc(-c2cnc(N)c(-n3cncn3)n2)c1 ? > 10 µM

Recorded IC50 for Cc1ccc(S(=O)(=O)NCC2(C)COC2)cc1-c1cnc(N)c(-c2cnn(C)c2)n1 with PI 3-kinase beta (Homo sapiens), please? > 10 µM
